attribute.measured: melting point

*Q* Fill in melting point for record Cn1c(=O)[se]c2cc(C(c3ccc([N+](=O)[O-])cc3)n3cncn3)ccc21 (stereo not shown) [PCH304]
*A* 190 to 195 °C

*Q* Using the record for Cn1c(=O)[se]c2cc(C(c3ccc(C#N)cc3)n3cncn3)ccc21 (stereo not shown) [PCH300] , state its measured melting point.
*A* 154 to 158 °C

*Q* State its melting point for this compound: Cn1c(=O)sc2ccc(C(c3ccc(C#N)cc3)n3cncn3)cc21 (stereo not shown) [PCH163]
*A* 122 to 125 °C

*Q* Look up melting point of CCn1c(=O)[se]c2cc(C(c3ccc(C#N)cc3)n3cncn3)ccc21 (stereo not shown) [PC11303] and report it.
*A* 95 to 98 °C

*Q* Give the measured melting point for CCn1c(=O)[se]c2cc(C(c3ccc([N+](=O)[O-])cc3)n3cncn3)ccc21 (stereo not shown) [PCH305]
*A* 79 to 82 °C

Batch request: melting point for each of the following compounds.
1. CCn1c(=O)sc2ccc(C(c3ccc(C#N)cc3)n3cncn3)cc21 (stereo not shown) [PCH246]
2. N#Cc1ccc(C(c2ccc3[nH]c(=O)[se]c3c2)n2cncn2)cc1 (stereo not shown) [PCH302]

*A*
["125 to 127 °C", "223 to 226 °C"]

====

Molecular target: aromatase (microsomes from the human placenta) (Homo sapiens, UniProt P11511)
Construct: using microsomes from the human placenta as source of the enzyme; from tissue; host or cells: human placenta microsomes
Sequence (P11511 whole entry): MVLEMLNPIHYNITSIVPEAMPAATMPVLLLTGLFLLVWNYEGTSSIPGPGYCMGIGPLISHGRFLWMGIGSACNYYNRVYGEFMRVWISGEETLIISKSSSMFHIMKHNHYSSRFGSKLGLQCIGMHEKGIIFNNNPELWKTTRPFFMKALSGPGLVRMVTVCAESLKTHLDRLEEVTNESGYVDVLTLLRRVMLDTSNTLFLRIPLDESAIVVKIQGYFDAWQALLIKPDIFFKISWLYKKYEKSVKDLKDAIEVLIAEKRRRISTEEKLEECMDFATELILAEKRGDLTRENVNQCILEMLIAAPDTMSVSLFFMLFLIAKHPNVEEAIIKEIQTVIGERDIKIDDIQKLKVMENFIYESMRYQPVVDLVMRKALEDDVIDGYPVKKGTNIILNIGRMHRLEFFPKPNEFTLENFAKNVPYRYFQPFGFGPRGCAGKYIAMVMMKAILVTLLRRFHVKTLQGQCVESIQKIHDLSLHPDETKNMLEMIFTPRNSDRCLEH
Assay: Aromatase inhibition in vitro, tritiated water method, human placenta microsomes
Type: biochemical
Details: value without (h)/(e) mark; read-out: Activity In vitro IC50
attribute.measured: log10 IC50 (log10 of the value in nM)
Field: value | Transform: log10 | Quantity: IC50 | Unit: nM

Use the examples below as a reference point.
*Q* Param request: log10 IC50 | system aromatase (microsomes from the human placenta) (Homo sapiens, UniProt P11511) | item CCn1c(=O)sc2cc(C(c3ccc([N+](=O)[O-])cc3)n3cncn3)ccc21 (stereo not shown) [PCH243]
*A* 0.60

*Q* Please tell me the measured log10 IC50 for CCn1c(=O)sc2cc(C(c3ccc(C#N)cc3)n3cncn3)ccc21 (stereo not shown) [PCH260] ; system: aromatase (microsomes from the human placenta) (Homo sapiens, UniProt P11511).
*A* 0.65

Dear reader, for each entry below, please note its log10 IC50.
1. Cn1c(=O)sc2ccc(C(c3ccc(C#N)cc3)n3cncn3)cc21 (stereo not shown) [PCH163]
2. CCn1c(=O)sc2ccc(C(c3ccc(C#N)cc3)n3cncn3)cc21 (stereo not shown) [PCH246]
3. Cn1c(=O)sc2cc(C(c3ccc([N+](=O)[O-])cc3)n3cncn3)ccc21 (stereo not shown) [PCH259]
4. CN1C(=O)COc2ccc(C(c3ccc(C#N)cc3)n3ccnc3)cc21 (stereo not shown) [PCH222]
5. N#Cc1ccc(C(c2ccc3c(c2)SCC(=O)N3)n2cncn2)cc1 (stereo not shown) [PCH230]

*A*
0.76
0.74
0.48
0.54
1.54

Your task in this section: give log10 IC50 for each listed record.
1. Cn1c(=O)sc2cc(C(c3cccc(C#N)c3)n3cncn3)ccc21 (stereo not shown) [PCH258]
2. N#Cc1ccc(C(c2ccc3[nH]c(=O)sc3c2)n2ccnc2)cc1 (stereo not shown) [PC11215]

*A*
1: 1.50; 2: 0.61

State recorded log10 IC50 for all listed molecules.
1. CN1C(=O)CSc2cc(C(c3ccc(C#N)cc3)n3ccnc3)ccc21 (stereo not shown) [PCH240]
2. O=C1CSc2cc(C(c3ccccc3)n3ccnc3)ccc2N1 (stereo not shown) [PCH227]
3. COc1cc2oc(=O)[nH]c2cc1C(c1ccc(C#N)cc1)n1ccnc1 (stereo not shown) [GCA36]
4. O=c1[nH]c2cc(C(c3ccc(Cl)cc3)n3cncn3)ccc2o1 (stereo not shown) [PCH195]
5. O=c1[nH]c2cc(C(c3ccccc3)n3cncn3)ccc2s1 (stereo not shown) [PCH132]

*A*
[0.73, 1.74, 1.30, 1.23, 2.25]

I have 7 molecules here; please give me log10 IC50 for each one.
1. Cn1c(=O)sc2cc(C(c3ccc(C#N)cc3)n3ccnc3)ccc21 (racemic) [PCH165 (−)CD4]
2. CN1C(=O)COc2ccc(C(c3ccccc3)n3ccnc3)cc21 (stereo not shown) [PCH213]
3. Cn1c(=O)[se]c2cc(C(c3ccc([N+](=O)[O-])cc3)n3cncn3)ccc21 (stereo not shown) [PCH304]
4. Cn1c(=O)oc2ccc(C(c3ccccc3)n3cncn3)cc21 (stereo not shown) [PCH183]
5. O=c1[nH]c2cc(C(c3ccncc3)n3ccnc3)ccc2o1 (stereo not shown) [PC11129]
6. Cn1c(=O)sc2cc(C(c3ccc(C#N)cc3)n3cncn3)ccc21 (stereo not shown) [PCH158]
7. N#Cc1ccc(C(c2ccc3c(c2)SCC(=O)N3)n2ccnc2)cc1 (stereo not shown) [PCH229]

*A*
[0.69, 0.75, 0.56, 3.26, 1.43, 0.94, 1.14]

Dear colleague, could you please provide log10 IC50 for the molecules listed below?
1. CCn1c(=O)[se]c2cc(C(c3ccc(C#N)cc3)n3cncn3)ccc21 (stereo not shown) [PC11303]
2. Cn1c(=O)sc2ccc(C(c3ccccc3)n3cncn3)cc21 (stereo not shown) [PCH134]
3. CCn1c(=O)[se]c2cc(C(c3ccc([N+](=O)[O-])cc3)n3cncn3)ccc21 (stereo not shown) [PCH305]
4. O=C1COc2cc(C(c3ccccc3)n3ccnc3)ccc2N1 (stereo not shown) [PCH211]
5. O=C1COc2ccc(C(c3ccccc3)n3ccnc3)cc2N1 (stereo not shown) [PCH218]
6. N#Cc1ccc(C(c2ccc3[nH]c(=O)[se]c3c2)n2cncn2)cc1 (stereo not shown) [PCH302]
7. Cn1c(=O)sc2cc(C(c3ccc(C#N)cc3)n3ccnc3)ccc21 (racemic) [PCH165 (+)CD4]
8. N#Cc1ccc(C(c2ccc3oc(=O)[nH]c3c2)n2ccnc2)cc1 (stereo not shown) [PC11128]

*A*
[0.60, 2.25, 0.57, 1.87, 1.82, 0.81, 0.94, 0.77]

Give log10 IC50 for each of the items listed below.
1. Cn1c(=O)sc2cc(C(c3ccc(C#N)cc3)n3cnnn3)ccc21 (stereo not shown) [PCH248]
2. Cn1c(=O)[se]c2cc(C(c3ccc(C#N)cc3)n3cncn3)ccc21 (stereo not shown) [PCH300]
3. CN1C(=O)CSc2cc(C(c3ccc(C#N)cc3)n3cncn3)ccc21 (stereo not shown) [PCH231]

*A*
1: 1.07; 2: 0.67; 3: 1.75

Dear colleague, could you send me log10 IC50 for each of the items below? Thanks.
1. Cn1c(=O)sc2cc(C(c3ccc(C#N)cc3)n3ccnc3)ccc21 (racemic) [PCH165 (+/−) CD4]
2. CCn1c(=O)sc2cc(C(c3ccc(C#N)cc3)n3ccnc3)ccc21 (stereo not shown) [PCH241]
3. Cn1c(=O)oc2ccc(C(c3ccc(Cl)cc3)n3cncn3)cc21 (stereo not shown) [PCH160]
4. Cn1c(=O)oc2ccc(C(c3ccc(Cl)cc3)n3cncn3)cc21 (stereo not shown) [PCH196]
5. N#Cc1ccc(C(c2ccc3c(c2)NC(=O)CO3)n2ccnc2)cc1 (stereo not shown) [PCH225]

*A*
1. 0.66
2. 0.63
3. 1.27
4. 1.40
5. 1.00
